Hello, the source for this data is PubChem BioAssay (NCI), in case you need it.

- Tested on: U251 CNS
- method_notes: NCI tumour cell line growth inhibition, 48 h
value_kind: TGI

| molecule | value_kind | result |
| --- | --- | --- |
| O=C(NN1C(=O)CSC12CCCC2)C(O)c1ccccc1 (stereo unspecified) | TGI | > 100 µM |
| O=C(N/N=C(/COc1cccc(Cl)c1)N=Cc1cccnc1)c1ccncc1 | TGI | > 100 µM |
| CC1CCc2c(c(CC3CC(=O)NC(=O)C3)nn2-c2ccccc2)C1 (stereo unspecified) | TGI | > 100 µM |
| O=C(Nc1cccnc1)c1ccc2ccc3ccc(C(=O)Nc4cccnc4)nc3c2n1 | TGI | > 100 µM |
| Cc1cc(C)n(C(=O)CSc2nnc(SCC(=O)n3nc(C)cc3C)s2)n1 | TGI | > 100 µM |
| Cc1cn2c(/C=C3/C(=O)Nc4ccc(F)cc43)c(C)nc2s1 | TGI | > 50 µM |
| c1ccc(C2=Nc3cccc4cccc(c34)N2)cc1 | TGI | > 100 µM |
| O=C(O)C12C3CCC(O3)C1(C(=O)O)C1CCC2O1 (stereo unspecified) | TGI | > 100 µM |
| O=[As](O)(O)c1ccc2nc3cc([As](=O)(O)O)ccc3nc2c1 | TGI | > 100 µM |
| CCCCCCCCCCCCCC(=O)OCC1OC(n2cc(F)c(=O)[nH]c2=O)C(N)C(OC(=O)CCCCCCCCCCCCC)C1O (stereo unspecified) | TGI | > 100 µM |
| COC(=O)C(C(=O)C(=O)Nc1ccc(OC)cc1[N+](=O)[O-])c1nc2cc(C)c(C)cc2[nH]c1=O (stereo unspecified) | TGI | > 100 µM |
